Emission maxima (nm) overview
- TEST SUMMARY: UV/VIS and fluorescence studies (spectral properties of the probes in four solvents)
- Type: physicochemical
- CONDITION SET: solvent EtOH; 1 µM or 0,1 µM

[
  {
    "COMPOUND STRUCTURE": "CN(C)CCNC(=O)c1cc2c(cc3c4c(cccc42)C(=O)N(C)C3=O)o1",
    "Emission maxima (nm)": 410
  },
  {
    "COMPOUND STRUCTURE": "CCCCCCN1C(=O)c2cccc3c2c(cc2cc(C(=O)NCCN(C)C)oc23)C1=O",
    "Emission maxima (nm)": 415
  },
  {
    "COMPOUND STRUCTURE": "CCCCCCN1C(=O)c2cccc3c2c(cc2cc(C(=O)NCCN(C)C)c(=O)oc23)C1=O",
    "Emission maxima (nm)": 434
  },
  {
    "COMPOUND STRUCTURE": "CCCCCCN1C(=O)c2cccc3c2c(cc2oc(=O)c(C(=O)NCCN(C)C)cc23)C1=O",
    "Emission maxima (nm)": 448
  },
  {
    "COMPOUND STRUCTURE": "CCCCCCN1C(=O)c2cccc3c2c(cc2oc(C(=O)NCCN(C)C)cc23)C1=O",
    "Emission maxima (nm)": 422
  }
]

---

Absorbance maxima (nm) overview
- TEST SUMMARY: UV/VIS and fluorescence studies (spectral properties of the probes in four solvents)
- Type: physicochemical
- CONDITION SET: solvent DMSO; 1 µM or 0,1 µM
- Description: Spectral properties of fluorescent probes 2, 4, 6, 8 and 10 (2 and 4 are for reference only) Spectral characteristics of probes were obtained by using a UV/VIS and fluorescence studies. The probes were measured in four solvents (DMSO, methanol, ethanol and phosphate buffer). Each LysoSers was at first dissolved in DMSO 1mM stock solution which was diluted to a final concentration 1 µM or 0,1 µM. […]

[
  {
    "COMPOUND STRUCTURE": "CCCCCCN1C(=O)c2cccc3c2c(cc2oc(=O)c(C(=O)NCCN(C)C)cc23)C1=O",
    "READING UNIT": "nm",
    "Absorbance maxima (nm)": 379
  },
  {
    "COMPOUND STRUCTURE": "CN(C)CCNC(=O)c1cc2c(cc3c4c(cccc42)C(=O)N(C)C3=O)o1",
    "READING UNIT": "nm",
    "Absorbance maxima (nm)": 377
  },
  {
    "COMPOUND STRUCTURE": "CCCCCCN1C(=O)c2cccc3c2c(cc2cc(C(=O)NCCN(C)C)c(=O)oc23)C1=O",
    "READING UNIT": "nm",
    "Absorbance maxima (nm)": 368
  },
  {
    "COMPOUND STRUCTURE": "CCCCCCN1C(=O)c2cccc3c2c(cc2oc(C(=O)NCCN(C)C)cc23)C1=O",
    "READING UNIT": "nm",
    "Absorbance maxima (nm)": 373
  },
  {
    "COMPOUND STRUCTURE": "CCCCCCN1C(=O)c2cccc3c2c(cc2cc(C(=O)NCCN(C)C)oc23)C1=O",
    "READING UNIT": "nm",
    "Absorbance maxima (nm)": 368
  }
]
